Ref: PubChem BioAssay AID1159580

Kindly supply the reported normalized growth values for the records listed here.
- MEASUREMENT_NOTES: chemical genetic growth profiling, strain panel (AID 1159580);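 also: tested at 20 µM; growth read once vehicle control cultures reached saturation at 30 °C; 1 = growth at the plate median or of vehicle wells; lower values mean less growth of the strain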
- STATED_CONDITIONS: S. cerevisiae deletion strains, growth OD, locus YDR226W, strain ADK1, stronger effect = lower value
Hit rate of the full screen: of about 5,500 compounds, about 2,000 (36%) were called active. Not shown: some 18% with an inconclusive outcome. Some of the results follow.

Qu. Dear colleague, I am looking for the recorded normalized growth of the following compound: `Cc1ccccc1C(=O)Oc1ccc(C(F)(F)F)cc1[N+](=O)[O-]`
Ans. 0.982 (inactive)

Qu. Dear colleague, I am looking for the recorded normalized growth of the following compound: `Cc1cc(Cl)ccc1NNC(=O)c1ccno1`
Ans. 0.976 (inactive)

Qu. Dear colleague, I am looking for the recorded normalized growth of the following compound: `COc1ccc(CN2CSC(=S)N(Cc3ccc(OC)cc3)C2)cc1`
Ans. 0.961 (inactive)

Qu. Dear colleague, I am looking for the recorded normalized growth of the following compound: `Cc1cc(Cl)ccc1NNC(=O)c1snnc1C`
Ans. 0.977 (inactive)

Qu. Dear colleague, I am looking for the recorded normalized growth of the following compound: COc1cc2c(cc1OC)C(C)N(C(=O)c1sc3ccccc3c1Cl)CC2 (configuration not stated)
Ans. 0.975 (inactive)

Qu. Dear colleague, I am looking for the recorded normalized growth of the following compound: `Cc1cc(C(=O)NNc2ccc(F)cc2F)no1`
Ans. 0.963 (inactive)

Qu. Dear colleague, I am looking for the recorded normalized growth of the following compound: `COc1ccc(NNC(=O)c2sc3ccccc3c2Cl)cc1`
Ans. 0.938 (inactive)

Qu. Dear colleague, I am looking for the recorded normalized growth of the following compound: `Cc1cc(NNC(=O)c2ccccc2Cl)nc2c1c(C)nn2C`
Ans. 0.976 (inactive)

Qu. Dear colleague, I am looking for the recorded normalized growth of the following compound: `S=C(Nc1ccc(Cl)cc1Cl)N(c1cccc(Cl)c1)c1nc2ccccc2s1`
Ans. 0.954 (inactive)

Qu. Dear colleague, I am looking for the recorded normalized growth of the following compound: `N#CC(C#N)=C(SCc1c(Cl)cccc1Cl)SCc1c(Cl)cccc1Cl`
Ans. 0.981 (inactive)

Qu. Dear colleague, I am looking for the recorded normalized growth of the following compound: `CCOC(=O)CSC(=S)NCc1ccc(C)cc1`
Ans. 0.946 (inactive)

Qu. Dear colleague, I am looking for the recorded normalized growth of the following compound: `Nc1ccccc1SCc1c(Cl)cccc1Cl`
Ans. 0.969 (inactive)
